Experiment: refractive index (Na D-line) (dimensionless)
Details: 303.15 K; 101.33 kPa; Liquid; Standard Abbe refractometry
assay.readout: refractive index

[
  {
    "compound": "CCCC(=O)O [butanoic acid]",
    "recorded.result": 1.39394
  },
  {
    "compound": "CCCC(C)O (stereo unspecified) [pentan-2-ol]",
    "recorded.result": 1.40216
  },
  {
    "compound": "C=COC(=O)CCC [vinyl butanoate]",
    "recorded.result": 1.40494
  },
  {
    "compound": "CCCC(=O)OC(C)CCC (stereo unspecified) [1-methylbutyl butanoate]",
    "recorded.result": 1.40283
  },
  {
    "compound": "CCCCCC[n+]1ccn(C)c1.O=S(=O)([N-]S(=O)(=O)C(F)(F)F)C(F)(F)F",
    "recorded.result": 1.42851
  },
  {
    "compound": "CCn1cc[n+](C)c1.O=S(=O)([N-]S(=O)(=O)C(F)(F)F)C(F)(F)F",
    "recorded.result": 1.42162
  }
]
